- target_system: Catalytic subunit of cAMP-dependent protein kinase (cDPK) (Homo sapiens, UniProt P17612)
- experiment_notes: Thermal shift (thermal melt) assay, Sypro orange
- Type: binding, H. sapiens
- condition_details: approximate, computed from the thermal shift; read-out: KD
pKd: −log10 of the molar value.
reported_property: pKd

mol	measured_number
COc1ccc(-c2cc3ccccc3[nH]2)cc1	4.31

* * *

- target_system: Nucleosome assembly protein 1 (NAP1) (Plasmodium knowlesi, UniProt A0A384KYS3)
- Sequence (A0A384KYS3 entry or part of it): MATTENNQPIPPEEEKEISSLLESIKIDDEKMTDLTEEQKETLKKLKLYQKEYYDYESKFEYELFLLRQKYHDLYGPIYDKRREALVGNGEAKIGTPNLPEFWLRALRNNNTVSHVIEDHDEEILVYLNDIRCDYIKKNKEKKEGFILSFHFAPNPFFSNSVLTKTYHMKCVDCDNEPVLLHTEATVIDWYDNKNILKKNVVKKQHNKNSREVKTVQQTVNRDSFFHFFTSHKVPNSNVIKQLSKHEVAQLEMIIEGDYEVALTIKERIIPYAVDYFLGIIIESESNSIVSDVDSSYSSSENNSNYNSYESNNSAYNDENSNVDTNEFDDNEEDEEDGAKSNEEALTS
- experiment_notes: Thermal shift (thermal melt) assay, Sypro orange
- Type: binding, P. knowlesi
- condition_details: approximate, computed from the thermal shift; read-out: KD

molecule	Kd / µM
O=C1c2cc(O)c(O)cc2OC(c2ccc(O)c(O)c2)C1O (stereo not shown)	180

* * *

- target_system: E. coli dihydrofolate reductase (DHFR) (Escherichia coli, UniProt P0ABQ4)
- Sequence (P0ABQ4 whole entry): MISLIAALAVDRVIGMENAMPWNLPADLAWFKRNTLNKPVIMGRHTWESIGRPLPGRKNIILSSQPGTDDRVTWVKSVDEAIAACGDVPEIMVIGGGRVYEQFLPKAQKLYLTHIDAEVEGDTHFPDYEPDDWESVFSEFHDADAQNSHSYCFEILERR
- experiment_notes: biochemical
- Type: binding
- condition_details: Table S3; computed from the thermal shifts obtained; read-out: KD (Approx)
pKd: −log10 of the molar value.

compound	pKd
COc1cc(NCc2ccccc2O)c2ncccc2c1	~4.12
Nc1ccc(NC(=O)c2ccc(C(=O)Nc3ccc(N)cc3)cc2)cc1	~4.13
O=C(Nc1ccc(Oc2ccc(NC(=O)Nc3ccc([N+](=O)[O-])cc3)cc2)cc1)Nc1ccc([N+](=O)[O-])cc1	~5.77
CC(C)=C(c1ccc(Cl)cc1)c1c(N)ncnc1N	~4.71
C1=Cc2ccccc2Nc2ccccc21	~5.25
Nc1nc(N)c2c(ccc3[nH]ccc32)n1 [NSC 339578, reference compound]	~6.94

* * *

- target_system: Ubiquitin conjugating enzyme (UCE) (Plasmodium falciparum)
- Sequence (Q8I607 1-147): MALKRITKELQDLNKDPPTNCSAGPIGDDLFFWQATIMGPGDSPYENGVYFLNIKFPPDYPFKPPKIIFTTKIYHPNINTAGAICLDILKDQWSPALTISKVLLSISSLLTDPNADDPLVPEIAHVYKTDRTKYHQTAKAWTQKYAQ
- experiment_notes: Thermal shift (thermal melt) assay, Sypro orange
- Type: binding, P. falciparum
- condition_details: approximate, computed from the thermal shift; listed as 93427; read-out: KD (Approx)
pKd: −log10 of the molar value.

mol	target_system	pKd
NC(=O)c1cc2c3ccccc3ccn2c1-c1ccccc1	Ubiquitin conjugating enzyme (UCE) (Plasmodium falciparum)	5.86

* * *

- target_system: 1000001: Carboxy-terminus phosphatase domain of protein tyrosine phosphatase (2NV5) (Mus musculus, UniProt Q64487)
- Construct: The C-terminal phosphatase domain from R. norvegicus (PDB ID: 2NV5) (1000001); New York structural genomics consortium (gift)
- Sequence (Q64487 1331-1621): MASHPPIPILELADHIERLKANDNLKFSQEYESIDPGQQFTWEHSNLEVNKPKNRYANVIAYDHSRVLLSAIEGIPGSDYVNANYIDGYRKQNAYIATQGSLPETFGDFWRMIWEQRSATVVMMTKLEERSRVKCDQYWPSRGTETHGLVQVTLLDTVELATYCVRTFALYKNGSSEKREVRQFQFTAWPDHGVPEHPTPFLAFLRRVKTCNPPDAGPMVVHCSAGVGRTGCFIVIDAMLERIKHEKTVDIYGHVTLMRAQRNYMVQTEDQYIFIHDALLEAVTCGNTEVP
- experiment_notes: Thermal shift (thermal melt) assay, Sypro orange
- Format: binding, M. musculus
- condition_details: approximate, computed from the thermal shift; listed as NSC134137; read-out: KD

mol	Kd
NS(=O)(=O)c1ccc(N=Nc2c(O)c(C(=O)O)cc3ccccc23)cc1	~406 nM

* * *

- target_system: E. coli dihydrofolate reductase (DHFR) (Escherichia coli, UniProt P0ABQ4)
- experiment_notes: biochemical
- Type: binding
reported_property: Kd

mol	reported_property	result
O=C(Nc1ccc(C(=O)O)c(O)c1)c1ccccc1	Kd	~12.7 µM

* * *

- target_system: Thioredoxin peroxidase 2 (TP2) (Plasmodium falciparum)
- Construct: Structural Genomics for Pathogenic Protozoa (SGPP) consortium (gift)
- Sequence (Q8I5Q6 20-216): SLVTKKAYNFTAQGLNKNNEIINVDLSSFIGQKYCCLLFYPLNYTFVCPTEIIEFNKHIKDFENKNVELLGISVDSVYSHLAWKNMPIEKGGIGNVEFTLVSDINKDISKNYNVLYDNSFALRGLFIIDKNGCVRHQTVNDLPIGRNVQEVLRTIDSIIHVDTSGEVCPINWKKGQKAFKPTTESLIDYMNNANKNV
- experiment_notes: Thermal shift (thermal melt) assay, Sypro orange
- Assay type: binding
- condition_details: approximate, computed from the thermal shift; read-out: KD
pKd: −log10 of the molar value.

mol	pKd
Cc1c(C(C)(C(=O)O)c2c(C)n(C)c3ccccc23)c2ccccc2n1C	4.39
